This collection of values is drawn from the NIST ThermoML archive (doi:10.1021/je100556t).

conditions: 298.15 K; 101.33 kPa; Liquid
EXPERIMENTAL_ENDPOINT: molar volume (m3/mol)
Return type: number; implicit unit m3/mol.

Which molar volume is listed for C1CCOC1 [tetrahydrofuran] ?
8.174e-05

Looking for the measured molar volume of CCOCCO [2-ethoxyethan-1-ol] , can you help?
9.742e-05

# input molecule: C1CCCCC1 [cyclohexane] ; wanted: its molar volume
0.0001088

molar volume lookup needed for COCCO [2-methoxyethan-1-ol] , thanks.
7.926e-05

// query molar volume value for entry CCO [ethanol]
5.866e-05
